Test system: U2OS
EXPERIMENT_DESCRIPTION: Incucyte cell viability with U2OS; also: filed as whole numbers so only -1 and 0 and 1 occur
Type: toxicity, cell-based
MEASUREMENT_CONDITIONS: human, 0 h, 10 µM, compound concentration 10 uM, replicate number 1, timepoint 0 hours
Entries and their Growth Rate values follow.
EXPERIMENTAL_READOUT: Growth Rate

O=S(=O)(NC1CCC(c2cc(F)ccc2F)(S(=O)(=O)c2ccc(Cl)cc2)CC1)C(F)(F)F (stereo not drawn) [MRK-560]: 1
Cc1cnc(Nc2ccc(F)cc2Cl)nc1-c1c[nH]c(C(=O)N[C@H](CO)c2cccc(Cl)c2)c1: 0
CO[C@H]1CC[C@H](CNc2ccc(S(=O)(=O)NC(=O)c3ccc(N4CCN(CC5=C(c6ccc(Cl)cc6)CC(C)(C)CC5)CC4)cc3Oc3cnc4[nH]ccc4c3)cc2[N+](=O)[O-])CC1 [A-1211212]: 0

Data provenance is ChEMBL document CHEMBL4689842.
